systemUnderTest: human cytosolic sulfotransferase 1C4 (hSULT1C4) (Homo sapiens, UniProt O75897)
Sequence (O75897 whole entry): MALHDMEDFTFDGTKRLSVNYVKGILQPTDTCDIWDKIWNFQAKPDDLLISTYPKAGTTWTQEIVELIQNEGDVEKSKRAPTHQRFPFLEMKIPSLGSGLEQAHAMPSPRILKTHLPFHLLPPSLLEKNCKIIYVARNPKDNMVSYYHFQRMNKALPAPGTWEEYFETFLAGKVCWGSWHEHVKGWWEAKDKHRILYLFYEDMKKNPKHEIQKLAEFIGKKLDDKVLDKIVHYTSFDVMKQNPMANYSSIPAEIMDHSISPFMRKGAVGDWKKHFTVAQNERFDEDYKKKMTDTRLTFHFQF

{"molecule": "Nc1ncnc2c1ncn2[C@@H]1O[C@H](COP(=O)(O)O)[C@@H](OP(=O)(O)O)[C@H]1O [PAP]", "systemUnderTest": "human cytosolic sulfotransferase 1C4 (hSULT1C4) (Homo sapiens, UniProt O75897)", "Kd [nM]": 2800}
